Tested on: RAW-Dual
PROTOCOL: NF-kB SEAP reporter activity, fold change vs agonist alone; higher = enhanced NF-kB activity
CONDITION_SET: library stock concentration (final ~1000-fold dilution): 10 mM; cytotoxicity flag (confluency mask): not cytotoxic; agonist: MPLA (TLR4) […]
The full ranking holds about 2,900 compounds; the median of “NF-kB SEAP reporter activity, fold change vs agonist alone” is about 0.99, and the highest 2% start at about 2.6. This is one part of a sample in which the highest values are shown more often than they occur.
OBSERVABLE: NF-kB SEAP reporter activity

{"MOLECULE": "CN1CCc2c(c3ccccc3n2Cc2ccc(C(=O)NO)cc2)C1", "NUMBER": 1.11}
{"MOLECULE": "CN1CCc2c(c3ccccc3n2Cc2ccc(C(=O)NO)cc2)C1.Cl", "NUMBER": 2.55}
{"MOLECULE": "CC1(C(=O)O)CCC2(C)CCC3(C)C(=CC(=O)C4C5(C)CCC(OC6OC(C(=O)O)C(O)C(O)C6OC6OC(C(=O)O)C(O)C(O)C6O)C(C)(C)C5CCC43C)C2C1.N.N (stereo not given)", "NUMBER": 1.03}
{"MOLECULE": "CC(NC(=O)c1ncnc(N)c1Cl)c1ncc(C(=O)Nc2cc(C(F)(F)F)c(Cl)cn2)s1 (stereo not given)", "NUMBER": 0.876}
{"MOLECULE": "CCOc1cc(=O)[nH]cc1-c1ccc(CC(=O)Nc2cc(C(C)(C)C(F)(F)F)on2)c(F)c1", "NUMBER": 0.545}
{"MOLECULE": "c1cncc(CN2CCC(n3ncc4c(N5CCOCC5)nc(-c5ccc6[nH]ccc6c5)nc43)CC2)c1", "NUMBER": 0.899}
{"MOLECULE": "COc1ccc2cc(-c3[nH]c(-c4ccc(S(C)=O)cc4)nc3-c3ccncc3)ccc2c1 (stereo not given)", "NUMBER": 2.57}
{"MOLECULE": "N#Cc1cnc(Nc2cc(NCC3CNCCO3)c(C(F)(F)F)cn2)cn1 (stereo not given)", "NUMBER": 0.936}
{"MOLECULE": "CCOC(=O)c1ccc(NC2CCCCC2)c(N)c1", "NUMBER": 1.57}
{"MOLECULE": "CCn1cc(C(=O)O)c(=O)c2c(N)c(F)c(NC3CCCCC3)cc21", "NUMBER": 1.95}

====

Test system: RAW-Dual
PROTOCOL: NF-kB SEAP reporter activity, fold change vs agonist alone; cytotoxicity flag (confluency mask): not cytotoxic; higher = enhanced NF-kB activity
CONDITION_SET: agonist: Pam2CSK4 (TLR2/6) 0.1 ug/mL
Whole data set: some 2,900 compounds, median “NF-kB SEAP reporter activity, fold change vs agonist alone” near 0.99, cut for the highest 2% near 2.6. Shown is part of a subset that was picked to be rich in the highest values.
# NF-kB SEAP reporter activity binned as low range: < 0.7; mid range: ≥ 0.7 and < 1; high range: ≥ 1

{"MOLECULE": "Cc1ccc(CNc2ncnc3ccc(-c4ccc(CO)o4)cc23)o1 (library stock concentration (final ~1000-fold dilution): 10 mM)", "ASSIGNED_CATEGORY": "high range"}
{"MOLECULE": "C#Cc1cccc(Nc2ncnc3cc(OC)c(NC(=O)N4CC5CCN(C)C5C4)cc23)c1 (centres undefined) (library stock concentration (final ~1000-fold dilution): 10 mM)", "ASSIGNED_CATEGORY": "mid range"}
{"MOLECULE": "N#Cc1ccc2ncnc(NCCc3ccccc3)c2c1 (library stock concentration (final ~1000-fold dilution): 10 mM)", "ASSIGNED_CATEGORY": "high range"}
{"MOLECULE": "N#Cc1cc(-c2ccnc(Nc3ccc(N4CCOCC4)cc3)n2)ccc1OC1CCOCC1 (library stock concentration (final ~1000-fold dilution): 10 mM)", "ASSIGNED_CATEGORY": "low range"}
{"MOLECULE": "O=C(Oc1cc(S(=O)(=O)c2ccccc2)ccc1[N+](=O)[O-])c1ccc(Cl)cc1 (library stock concentration (final ~1000-fold dilution): 10 mM)", "ASSIGNED_CATEGORY": "high range"}
{"MOLECULE": "N#CCNC(=O)c1ccc(-c2ccnc(Nc3ccc(N4CCOCC4)cc3)n2)cc1 (library stock concentration (final ~1000-fold dilution): 10 mM)", "ASSIGNED_CATEGORY": "low range"}
{"MOLECULE": "CC(C)C1=CC2=CCC3C(C)(C(=O)O)CCCC3(C)C2CC1 (centres undefined) (library stock concentration (final ~1000-fold dilution): 10 mM)", "ASSIGNED_CATEGORY": "high range"}
{"MOLECULE": "N#CC1CC2CC2N1C(=O)C(N)C12CC3CC(CC(O)(C3)C1)C2.O (centres undefined) (library stock concentration (final ~1000-fold dilution): 10 mM)", "ASSIGNED_CATEGORY": "high range"}
{"MOLECULE": "CC(=O)OC1CC2CCC3C(CCC4(C)C3CC([N+]3(C)CCCCC3)C4OC(C)=O)C2(C)CC1N1CCCCC1 (centres undefined) (library stock concentration (final ~1000-fold dilution): 10 mM)", "ASSIGNED_CATEGORY": "mid range"}
{"MOLECULE": "CN1CCC(c2c(O)cc(O)c3c(=O)cc(-c4ccccc4Cl)oc23)C(O)C1.Cl (centres undefined) (library stock concentration (final ~1000-fold dilution): 10 mM)", "ASSIGNED_CATEGORY": "low range"}
{"MOLECULE": "C=CC1CC1(NC(=O)C1CC2CN1C(=O)C(C(C)(C)C)NC(=O)OC1CC1CCCCCc1nc3ccc(OC)cc3nc1O2)C(=O)NS(=O)(=O)C1CC1 (centres undefined) (library stock concentration (final ~1000-fold dilution): 10 mM)", "ASSIGNED_CATEGORY": "mid range"}
{"MOLECULE": "CCOCc1nc2c(N)nc3ccccc3c2n1CC(C)(C)O (library stock concentration (final ~1000-fold dilution): 3.2 mM)", "ASSIGNED_CATEGORY": "low range"}
